src = patent US20250152585A1

pIC50 values, listed per item
TARGET_OR_TEST_SYSTEM: full length N-terminally FLAG-tagged PARP1 (Homo sapiens, UniProt P09874)
Sequence (P09874 whole entry): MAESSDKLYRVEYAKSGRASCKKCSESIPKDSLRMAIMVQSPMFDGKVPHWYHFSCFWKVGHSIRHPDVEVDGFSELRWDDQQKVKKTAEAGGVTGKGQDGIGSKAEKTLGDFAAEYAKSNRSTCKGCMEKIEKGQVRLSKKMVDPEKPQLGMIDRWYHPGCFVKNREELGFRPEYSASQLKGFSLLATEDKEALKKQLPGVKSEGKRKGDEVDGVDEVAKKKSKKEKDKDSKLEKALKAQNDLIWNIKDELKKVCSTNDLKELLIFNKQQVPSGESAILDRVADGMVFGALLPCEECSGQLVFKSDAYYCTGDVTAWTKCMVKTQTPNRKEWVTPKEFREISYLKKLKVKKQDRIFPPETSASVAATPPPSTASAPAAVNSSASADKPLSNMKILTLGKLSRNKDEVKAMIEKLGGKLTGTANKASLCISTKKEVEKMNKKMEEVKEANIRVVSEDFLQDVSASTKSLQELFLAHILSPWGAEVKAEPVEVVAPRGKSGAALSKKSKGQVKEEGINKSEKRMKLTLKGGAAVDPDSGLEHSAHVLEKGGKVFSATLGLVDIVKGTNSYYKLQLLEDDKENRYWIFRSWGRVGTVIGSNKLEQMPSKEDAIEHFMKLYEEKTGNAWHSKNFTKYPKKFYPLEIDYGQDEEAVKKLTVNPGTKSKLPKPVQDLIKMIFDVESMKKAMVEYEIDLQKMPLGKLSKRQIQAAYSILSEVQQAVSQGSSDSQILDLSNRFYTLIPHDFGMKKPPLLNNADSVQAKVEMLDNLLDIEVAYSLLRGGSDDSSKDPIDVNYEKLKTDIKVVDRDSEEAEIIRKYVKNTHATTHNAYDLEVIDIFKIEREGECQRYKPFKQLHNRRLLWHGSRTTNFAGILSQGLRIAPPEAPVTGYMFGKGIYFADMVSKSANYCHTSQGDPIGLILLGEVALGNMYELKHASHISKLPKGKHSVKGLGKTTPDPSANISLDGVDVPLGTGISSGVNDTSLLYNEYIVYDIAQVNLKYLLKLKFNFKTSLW
RUN_DESCRIPTION: PARP1 biochemical DELFIA assay (auto-PARylation)
Parameters: recombinant full length human N-terminally FLAG-tagged PARP1
RECORDED_CONDITIONS: binned IC50, biochemical auto-PARylation assay
pIC50: −log10 of the molar value.

COMPOUND	RESULT
CNC(=O)c1ccc(N2CCC(N3CC4(c5nc6ncccc6c(=O)[nH]5)CC3C4)CC2)cn1	> 8.00
CNC(=O)c1ccc(N2CCC(N3CCC(c4cc5ncc(F)cc5c(=O)[nH]4)C3)CC2)cn1 (single isomer, unassigned) [Compound 315b]	> 8.00
CNC(=O)c1ccc(N2CCC(N3CCC(c4[nH]c(=O)c5ccccc5c4Cl)C3)CC2)cn1 (single isomer, unassigned) [Compound 219b]	> 8.00
N#Cc1ccc(N2CCC(N3CCC(c4cc5cccc(F)c5c(=O)[nH]4)C3)CC2)cn1 (single isomer, unassigned) [Compound 316b]	7.00 to 8.00
N#Cc1ccc(N2CCC(N3CCC(c4cc5ccc(F)cc5c(=O)[nH]4)C3)CC2)c(F)c1 (single isomer, unassigned) [Compound 385b]	> 8.00

Field: next compound
Per the records, this compound ( N#Cc1ccc(N2CCC(N3CCC(c4cc5cccc(F)c5c(=O)[nH]4)C3)CC2)nc1 (single isomer, unassigned) [Compound 340b] ) has pIC50 equal to 7.00 to 8.00
